Provide the recorded self-cleavage for the entries that follow.
B1: Twister Ribozyme (parent)
chain: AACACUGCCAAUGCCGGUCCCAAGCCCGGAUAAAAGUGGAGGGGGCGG

Variants of: B1
assay text: self-cleavage, relative activity (ratio to wild type); higher = more cleavage; co-transcriptional
Give the figure by itself; no unit, no explanation.

Task: Quick one: self-cleavage of A2G A30G ?
Output: 0.399

Task: Then what about the variant A4C G29U ?
Output: 0.145

Task: Then what about the variant G7U G47U ?
Output: 0.0775

Task: Then what about the variant C26G C27U ?
Output: 0.0811

Task: Then what about the variant A4C U6G ?
Output: 0.0323

Task: Then what about the variant C5A C19U ?
Output: 0.424

Task: Then what about the variant G13U G39U ?
Output: 0.0998

Task: Then what about the variant A4C C46U ?
Output: 0.163

Task: Then what about the variant U18C G44U ?
Output: 0.498

Task: Then what about the variant A1G A40U ?
Output: 0.204

Task: Then what about the variant G41C G44U ?
Output: 0.147

Task: Then what about the variant G17A C26G ?
Output: 0.442

Task: Then what about the variant G45A ?
Output: 0.939

Task: Then what about the variant C27U A30G ?
Output: 0.777

Task: Then what about the variant U18A G42C ?
Output: 0.215

Task: Then what about the variant U6G A33U ?
Output: 0.234

Task: Then what about the variant A1G A33C ?
Output: 0.462

Task: Then what about the variant G13C C14G ?
Output: 0.334

Task: Then what about the variant U37C G45U ?
Output: 0.515

Task: Then what about the variant A1C A22U ?
Output: 0.14

Task: Then what about the variant A2U G41A ?
Output: 0.111

Task: Then what about the variant A22G A34G ?
Output: 0.0987
